Reported MFI values follow for various binders
Target: T1, human chemokine (C-C motif) receptor 8 (CCR8) (human, UniProt P51685 1-355)
T1 construct: On human peripheral blood lymphocytes / PBMC (native) or on human CCR8 GFP-transfected Ba/F3 cells; also called hCCR8; human CCR8
T1 sequence (P51685 whole entry): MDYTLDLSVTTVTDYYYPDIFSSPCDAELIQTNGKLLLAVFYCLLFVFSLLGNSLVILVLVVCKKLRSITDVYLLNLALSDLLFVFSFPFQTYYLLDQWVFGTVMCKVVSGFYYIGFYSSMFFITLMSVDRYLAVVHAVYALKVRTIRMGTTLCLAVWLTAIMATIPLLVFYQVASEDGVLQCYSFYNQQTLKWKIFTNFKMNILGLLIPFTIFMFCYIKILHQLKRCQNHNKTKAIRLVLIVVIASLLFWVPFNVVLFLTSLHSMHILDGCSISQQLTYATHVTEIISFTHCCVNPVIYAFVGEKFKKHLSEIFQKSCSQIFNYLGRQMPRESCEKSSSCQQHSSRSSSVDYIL
Assay: flow cytometry blocking, PBMC CCR8+ CD4+ cells; competitor PE-AB10 (its MFI is read)
Description: For blocking studies, 100 μL of the cell suspension were incubated with 10 μg purified isotype control, AB1, AB2, AB3, AB4, AB5, AB8, AB9, AB10, AB11, AB12, AB13, AB14, AB15, and Commercial ABI antibodies, or isotype control, as blocking agents. […]
Quick one: just the number, no unit, thanks!

Known results for binders:
# binder, MFI
rows = [
    ("AB15 (antibody, V domains shown, Hybridoma monoclonal; also called antibody 15; clone 15) VH: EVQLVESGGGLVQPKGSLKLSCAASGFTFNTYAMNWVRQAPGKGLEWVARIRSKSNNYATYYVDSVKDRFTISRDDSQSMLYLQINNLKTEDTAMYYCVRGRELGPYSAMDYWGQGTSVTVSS VL: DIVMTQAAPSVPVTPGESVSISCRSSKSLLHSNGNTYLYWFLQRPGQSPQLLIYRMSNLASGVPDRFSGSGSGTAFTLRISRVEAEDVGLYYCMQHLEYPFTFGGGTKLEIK", 992),
    ("AB1 (antibody, V domains shown, Hybridoma monoclonal (mice or rats immunised); Used purified and PE-conjugated; also called antibody 1; clone 1) VH: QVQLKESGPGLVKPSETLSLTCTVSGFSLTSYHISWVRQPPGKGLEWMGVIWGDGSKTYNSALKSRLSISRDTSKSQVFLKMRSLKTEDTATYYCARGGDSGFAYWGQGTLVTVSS VL: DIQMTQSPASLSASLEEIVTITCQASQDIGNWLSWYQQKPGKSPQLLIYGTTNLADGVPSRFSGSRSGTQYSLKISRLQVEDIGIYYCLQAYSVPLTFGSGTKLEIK", 1010),
    ("AB12 (antibody, V domains shown, Hybridoma monoclonal; also called antibody 12; clone 12) VH: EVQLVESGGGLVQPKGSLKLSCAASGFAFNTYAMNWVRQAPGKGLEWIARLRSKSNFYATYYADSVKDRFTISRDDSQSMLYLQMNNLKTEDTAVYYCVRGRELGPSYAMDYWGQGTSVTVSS VL: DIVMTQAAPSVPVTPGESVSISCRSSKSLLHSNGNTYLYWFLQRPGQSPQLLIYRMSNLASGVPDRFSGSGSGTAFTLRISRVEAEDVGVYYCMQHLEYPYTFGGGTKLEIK", 950),
]

Prompt line: Fill in the blank: the reported MFI of AB8 (antibody, V domains shown, Hybridoma monoclonal; also called antibody 8; clone 8) VH: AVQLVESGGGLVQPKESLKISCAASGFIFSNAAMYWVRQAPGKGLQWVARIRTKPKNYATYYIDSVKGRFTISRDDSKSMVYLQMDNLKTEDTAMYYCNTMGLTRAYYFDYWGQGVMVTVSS VL: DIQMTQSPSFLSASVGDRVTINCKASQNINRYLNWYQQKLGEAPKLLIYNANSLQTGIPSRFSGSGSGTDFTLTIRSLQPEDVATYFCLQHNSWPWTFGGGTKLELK is ____.
Response line: 1830

Prompt line: # lookup: MFI of AB2 (antibody, V domains shown, Hybridoma monoclonal; also called antibody 2; clone 2) VH: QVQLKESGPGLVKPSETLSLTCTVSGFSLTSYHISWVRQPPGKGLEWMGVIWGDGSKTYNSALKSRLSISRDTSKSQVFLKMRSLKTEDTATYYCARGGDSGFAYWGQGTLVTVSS VL: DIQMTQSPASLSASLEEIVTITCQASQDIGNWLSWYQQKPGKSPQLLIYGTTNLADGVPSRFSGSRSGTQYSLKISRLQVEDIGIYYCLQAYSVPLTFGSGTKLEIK
Response line: 1090
